- experimental_system: Carbonic anhydrase 9 (Homo sapiens, UniProt Q16790)
assay_endpoint: pKi
The read-out pKi is expressed as -log10 of concentration in moles per litre.

Notebook entry, Carbonic anhydrase 9 (Homo sapiens, UniProt Q16790) assay: pKi of CCOC(=O)c1cccc(NC(=O)Nc2ccc(OS(N)(=O)=O)cc2)c1 = ?
7.92
